System Tested: PKM2 (Homo sapiens, UniProt P14618)
Sequence (P14618 whole entry): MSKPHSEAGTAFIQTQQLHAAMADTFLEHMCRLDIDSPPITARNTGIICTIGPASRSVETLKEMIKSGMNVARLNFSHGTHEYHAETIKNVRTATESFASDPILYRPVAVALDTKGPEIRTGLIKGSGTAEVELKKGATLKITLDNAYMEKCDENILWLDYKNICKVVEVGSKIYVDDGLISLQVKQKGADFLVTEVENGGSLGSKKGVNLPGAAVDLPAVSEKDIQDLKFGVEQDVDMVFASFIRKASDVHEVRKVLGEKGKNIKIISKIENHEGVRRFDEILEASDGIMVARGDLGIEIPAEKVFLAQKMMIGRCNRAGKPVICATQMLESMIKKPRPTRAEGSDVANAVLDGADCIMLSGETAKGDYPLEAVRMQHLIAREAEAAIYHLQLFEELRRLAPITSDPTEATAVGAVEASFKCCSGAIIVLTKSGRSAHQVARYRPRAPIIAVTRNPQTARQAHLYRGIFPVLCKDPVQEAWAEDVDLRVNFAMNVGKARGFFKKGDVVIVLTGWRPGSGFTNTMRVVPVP
Assay Summary: PKM2 Assay
Type: biochemical
Measurement Parameters: activation of PKM2 enzyme, LDH-coupled, absorbance at 340 nm; read-out: PKM2_AC50
Value Type: AC50

Check out these entries, answers already filled in.
Cc1cccc(NS(=O)(=O)c2cncn2-c2cnccn2)c1: 100 to 500 nM
O=S(=O)(Nc1ccc(F)c(Cl)c1)c1cccn1-c1nccc(Cl)n1: 100 to 500 nM
COc1ccc(NS(=O)(=O)c2cnn(-c3ncc(C(F)(F)F)cc3Cl)c2)cc1: 1000 to 10000 nM
O=S(=O)(Nc1ccc(Cl)cc1)c1cncn1-c1nccc(Cl)n1: 1000 to 10000 nM
O=S(=O)(Nc1ccc2c(c1)OCO2)c1cncn1-c1ccnc(Cl)n1: 500 to 1000 nM
O=S(=O)(Nc1ccc(Cl)cc1)c1cncn1-c1ncccn1: 1000 to 10000 nM

Enter AC50 (test system PKM2 (Homo sapiens, UniProt P14618)) for O=S(=O)(Nc1cccc(C(F)(F)F)c1)c1cccn1-c1ncc(C(F)(F)F)cc1Cl 100 to 500 nM

Name the value of AC50 reported for O=S(=O)(Nc1cccc(Cl)c1)c1cncn1-c1ncc(C(F)(F)F)cc1Cl when tested on PKM2 (Homo sapiens, UniProt P14618). 100 to 500 nM

Fetch value of AC50 on PKM2 (Homo sapiens, UniProt P14618) for O=S(=O)(Nc1ccc2ccccc2c1)c1cncn1-c1ncc(C(F)(F)F)cc1Cl [drawing 151] . 100 to 500 nM

Report AC50 under test system PKM2 (Homo sapiens, UniProt P14618) for O=S(=O)(Nc1cc(F)c(F)c(F)c1)c1cccn1-c1ncc(C(F)(F)F)cc1Cl . 100 to 500 nM

Under PKM2 (Homo sapiens, UniProt P14618): report AC50 of O=S(=O)(Nc1ccc2c(c1)OCO2)c1cccn1-c1ncccc1Cl . < 100 nM

* * *

Here, each record is paired with measured AC50 data.
System Tested: PKM2 (Homo sapiens)
Assay Summary: PKM2 Assay
Type: biochemical
Measurement Parameters: activation of PKM2 enzyme, LDH-coupled, absorbance at 340 nm; read-out: PKM2_AC50

Below are worked cases with known answers.
Cc1cc(C)cc(NS(=O)(=O)c2cccn2-c2ccnc(Cl)n2)c1: < 100 nM
N#Cc1cccc(NS(=O)(=O)c2cccn2-c2ncc(C(F)(F)F)cc2Cl)c1: 100 to 500 nM

Here's the next entry for you.
Find the measured AC50 of O=S(=O)(Nc1ccc(Cl)cc1)c1cccn1-c1nccc(Cl)n1 and report it. 500 to 1000 nM

* * *

System Tested: PKM2 (Homo sapiens)
Assay Summary: PKM2 Assay
Format: biochemical
Measurement Parameters: activation of PKM2 enzyme, LDH-coupled, absorbance at 340 nm; read-out: PKM2_AC50
Reported AC50 values for a set of compounds

COc1cc(NS(=O)(=O)c2cccn2-c2ccnc(Cl)n2)cc(C(F)(F)F)c1: 0.5 to 1 µM
O=S(=O)(Nc1cc(C(F)(F)F)cc(C(F)(F)F)c1)c1cncn1-c1ncc(C(F)(F)F)cc1Cl: > 10 µM
Cc1cc(C)cc(NS(=O)(=O)c2cnn(-c3ncc(C(F)(F)F)cc3Cl)c2)c1: < 0.1 µM

Given O=S(=O)(Nc1ccc2c(c1)OCCO2)c1cncn1-c1ncc(C(F)(F)F)cc1Cl , report its AC50 on PKM2 (Homo sapiens). 1 to 10 µM

Write down measured AC50 (PKM2 (Homo sapiens)) for this compound. O=S(=O)(Nc1cccc(Cl)c1)c1ccnn1-c1cccs1 > 10 µM

Fetch value of AC50 on PKM2 (Homo sapiens) for O=S(=O)(Nc1ccc(Cl)cc1)c1cncn1-c1ccnc(Cl)n1 . 1 to 10 µM

Recall the reported AC50 of O=S(=O)(Nc1cccc(Cl)c1)c1ccnn1-c1ncc(C(F)(F)F)cc1Cl when tested on PKM2 (Homo sapiens). 0.1 to 0.5 µM

# assay system PKM2 (Homo sapiens): give AC50 of O=S(=O)(Nc1cccc(Cl)c1)c1ccnn1-c1nccs1 1 to 10 µM

Recall the reported AC50 of O=S(=O)(Nc1cc(F)c(F)c(F)c1)c1cncn1-c1ncc(C(F)(F)F)cc1Cl when tested on PKM2 (Homo sapiens). 1 to 10 µM

Find the measured AC50 of COc1ccc(NS(=O)(=O)c2cccn2-c2ncc(C(F)(F)F)cc2Cl)cc1 with PKM2 (Homo sapiens) as test system. 0.1 to 0.5 µM
